- TESTED_ON: α4β1 integrin (Jurkat cell adhesion to immobilized CS-1 derived peptide CLHPGEILDVPST) (Homo sapiens, UniProt P05556+P13612)
- Construct: 100 μl of Jurkat cells (2.5×10^6 cells/ml) in DMEM plus BSA
- Sequence (P13612 34-1032): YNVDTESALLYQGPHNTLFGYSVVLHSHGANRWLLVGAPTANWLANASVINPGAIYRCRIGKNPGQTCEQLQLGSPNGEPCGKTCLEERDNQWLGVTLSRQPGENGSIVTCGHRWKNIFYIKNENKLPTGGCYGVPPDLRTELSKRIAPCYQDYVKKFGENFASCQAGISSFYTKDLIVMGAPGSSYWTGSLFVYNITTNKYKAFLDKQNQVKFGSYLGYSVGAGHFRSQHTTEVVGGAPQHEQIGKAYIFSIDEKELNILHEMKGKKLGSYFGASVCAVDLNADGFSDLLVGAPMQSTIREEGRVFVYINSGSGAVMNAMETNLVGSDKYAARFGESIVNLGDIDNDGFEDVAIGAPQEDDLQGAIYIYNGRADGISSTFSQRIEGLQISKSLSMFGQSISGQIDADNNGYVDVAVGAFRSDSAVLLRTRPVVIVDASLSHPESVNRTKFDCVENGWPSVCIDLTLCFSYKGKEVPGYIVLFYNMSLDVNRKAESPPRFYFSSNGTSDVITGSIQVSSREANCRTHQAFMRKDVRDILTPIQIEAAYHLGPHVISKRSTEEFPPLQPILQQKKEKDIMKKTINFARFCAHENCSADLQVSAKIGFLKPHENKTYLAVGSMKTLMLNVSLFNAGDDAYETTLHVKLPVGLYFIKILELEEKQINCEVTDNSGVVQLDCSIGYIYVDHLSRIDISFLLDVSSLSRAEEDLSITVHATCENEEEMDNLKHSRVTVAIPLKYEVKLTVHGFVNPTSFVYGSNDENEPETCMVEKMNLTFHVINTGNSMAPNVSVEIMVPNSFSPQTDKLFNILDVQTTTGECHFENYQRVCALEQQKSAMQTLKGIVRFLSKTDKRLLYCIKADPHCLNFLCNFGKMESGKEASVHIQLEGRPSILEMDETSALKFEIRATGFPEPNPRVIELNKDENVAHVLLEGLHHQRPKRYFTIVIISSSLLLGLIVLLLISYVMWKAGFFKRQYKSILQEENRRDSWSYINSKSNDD
- Sequence (P05556 21-798): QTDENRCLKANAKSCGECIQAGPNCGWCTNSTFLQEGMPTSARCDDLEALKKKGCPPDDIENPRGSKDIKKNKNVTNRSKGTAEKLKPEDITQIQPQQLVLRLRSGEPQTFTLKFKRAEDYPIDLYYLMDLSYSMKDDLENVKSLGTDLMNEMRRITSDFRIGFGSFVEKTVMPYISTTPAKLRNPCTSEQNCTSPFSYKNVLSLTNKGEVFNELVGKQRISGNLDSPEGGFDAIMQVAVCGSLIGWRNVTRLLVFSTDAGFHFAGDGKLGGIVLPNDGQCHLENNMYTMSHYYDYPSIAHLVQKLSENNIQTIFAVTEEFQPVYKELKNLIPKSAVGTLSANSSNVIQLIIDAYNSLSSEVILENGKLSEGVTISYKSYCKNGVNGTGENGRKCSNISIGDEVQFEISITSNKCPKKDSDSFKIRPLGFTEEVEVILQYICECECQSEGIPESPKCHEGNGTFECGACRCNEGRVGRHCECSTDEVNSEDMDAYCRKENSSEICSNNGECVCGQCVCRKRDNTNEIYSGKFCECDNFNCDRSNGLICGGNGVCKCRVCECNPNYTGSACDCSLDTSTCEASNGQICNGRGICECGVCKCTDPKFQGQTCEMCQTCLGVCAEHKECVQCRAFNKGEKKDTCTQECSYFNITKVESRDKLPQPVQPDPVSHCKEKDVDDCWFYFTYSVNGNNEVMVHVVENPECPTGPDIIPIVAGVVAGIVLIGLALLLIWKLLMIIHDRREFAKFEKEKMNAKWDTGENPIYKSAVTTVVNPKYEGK
- EXPERIMENT: Jurkat-CS-1 assay
- CONDITIONS_USED: Jurkat cells on CS-1 peptide coated plates; read-out: JK/CS-1 (Jurkat CS-1 Assay IC50 value range)
READOUT_NAME: IC50

MOLECULE	IC50
O=C(Nc1ccc(C[C@H](NC(=O)[C@@H]2CCCCN2C(=O)c2cc(O)c3ccccc3n2)C(=O)O)cc1)c1c(Cl)cccc1Cl [Example 188]	50 to 750 nM
COC(=O)CCC(=O)N1[C@@H](C(=O)N[C@@H](Cc2ccc(NC(=O)c3c(Cl)cccc3Cl)cc2)C(=O)OC)C(C)(C)SC1(C)C (relative stereo) [Example 86]	≥ 750 nM

Turning to the following molecule.
Query string: Which measured IC50 value corresponds to O=C(O)[C@H](Cc1ccc(OCc2c(Cl)cccc2Cl)cc1)NC(=O)[C@H]1CSCN1C(=O)OCCN1CCCCC1 (relative stereo) [Example 152] ?
Result string: ≤ 50 nM

====

- TESTED_ON: α4β1 integrin (Jurkat T-cell adhesion to IL-1 stimulated endothelial cell monolayers) (Homo sapiens, UniProt P05556+P13612)
- Construct: a T-cell line, Jurkat, known to express the α4β1 integrin
- EXPERIMENT: Jurkat-endothelial cell adhesion assay (Jurkat EC)
- CONDITIONS_USED: Jurkat cells on IL-1 stimulated human umbilical vein endothelial cells; read-out: JK/EC (Jurkat EC Assay IC50 value range)
READOUT_NAME: IC50

COMPOUND	IC50
O=C(O)c1ccccc1C(=O)N1CCC[C@H]1C(=O)N[C@@H](Cc1ccc(NC(=O)c2c(Cl)cccc2Cl)cc1)C(=O)O	≥ 1000 nM
CCOC(=O)N1[C@@H](C(=O)N[C@@H](Cc2ccc(NC(=O)c3c(Cl)cccc3Cl)cc2)C(=O)OC)C[C@@H]1C(=O)OC	≥ 1000 nM
O=C(Nc1ccc(C[C@H](NC(=O)[C@H]2CSCN2C(=O)OCCN2CCOCC2)C(=O)O)cc1)c1c(Cl)cccc1Cl (relative stereo)	≤ 250 nM
COC(=O)[C@H](Cc1ccc(OCc2c(Cl)cccc2Cl)cc1)NC(=O)[C@H]1CSCN1C(=O)OCCN1CCCCC1 (relative stereo)	250 to 1000 nM
CC(=O)N1CSC[C@@H]1C(=O)N[C@@H](Cc1ccc(OCc2c(Cl)cccc2Cl)cc1)C(=O)O	≤ 250 nM
CN(CCc1ccccn1)C(=O)N1CSC[C@@H]1C(=O)N[C@@H](Cc1ccc(NC(=O)c2c(Cl)cccc2Cl)cc1)C(=O)O	≤ 250 nM
O=C(O)c1cc(C(=O)N2CSC[C@H]2C(=O)N[C@@H](Cc2ccc(NC(=O)c3c(Cl)cccc3Cl)cc2)C(=O)O)n[nH]1	250 to 1000 nM
O=C(O)CCC(=O)N1CCC[C@@H]1C(=O)N[C@@H](Cc1ccc(NC(=O)c2c(Cl)cccc2Cl)cc1)C(=O)O	250 to 1000 nM
COC(=O)[C@H](Cc1ccc(NC(=O)c2c(Cl)cccc2Cl)cc1)NC(=O)[C@H]1CSCN1C(=O)NC(C)(C)C	≥ 1000 nM
COCCC(=O)N1CCC(C(=O)N[C@@H](Cc2ccc(NC(=O)c3c(Cl)cccc3Cl)cc2)C(=O)O)CC1	≥ 1000 nM

Query string: Entry CN1C(=O)CC(C(=O)N[C@@H](Cc2ccc(NC(=O)c3c(Cl)cccc3Cl)cc2)C(=O)O)C1c1ccc2c(c1)OCO2 (stereo partly shown) : reported IC50 = ?
Result string: ≥ 1000 nM

Query string: How about O=C(Nc1ccc(C[C@H](NC(=O)[C@H]2CSCN2C(=O)C2CCCO2)C(=O)O)cc1)c1c(Cl)cccc1Cl (stereo partly shown) ?
Result string: ≤ 250 nM

Query string: Note, next up: CCOC(=O)N1[C@@H](C(=O)N[C@@H](Cc2ccc(NC(=O)c3c(Cl)cccc3Cl)cc2)C(=O)OC)CSC12CCCCC2 (relative stereo)
Result string: ≥ 1000 nM
